This listing pairs variants with measured protein stability index.
B1: MATN2 (parent)
chain: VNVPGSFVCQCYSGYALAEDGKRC

- Variants of: B1
- METHOD NOTES: protein stability index of a GFP-peptide fusion (GPS, HEK-293T) (PSI 1-6); higher = more stable;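 also: lentivirally expressed fusions sorted by FACS into six bins by GFP to DsRed ratio, PSI derived from sequencing read proportions per bin multiplied by bin number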
- MEASUREMENT SETUP: c terminus: a fixed tail appended
Could you respond with only the numeric value?

Examples with answers:
INSERT INTO assay_data (alteration, experimental_result) VALUES
  ('G5Q', 2.14),
  ('E19V', 2.29),
  ('V1N', 2.06);

Tell me measured protein stability index for `D20V` please.
1.87

Given `C9I` , respond with its protein stability index.
1.5
